System: Escherichia coli TOP10;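 also: peptides expressed intracellularly from a pBAD plasmid library in pooled LB shake-flask culture, induced with 0.3% L-arabinose, DNA abundance read by NGS, three biological replicates, DESeq2 with apeglm shrinkage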
TEST_SUMMARY: shrunken log2 fold change of peptide-encoding DNA abundance (4.5 h post-induction vs induction); higher = less antimicrobial activity (less host growth inhibition)
CONDITION_INFO: time post-induction: 4.5 h; library: site-saturation at positions 5, 18, 19, 20
REPORTED_PROPERTY: shrunken log2 fold change
Write the number on its own, no unit after it.

biopolymer_sequence=RRIRQRPPRLPRPRPRPQMHPRP test_value=-0.168
biopolymer_sequence=RRIRKRPPRLPRPRPRPSEGPRP test_value=0.0116
biopolymer_sequence=RRIRNRPPRLPRPRPRPTWPPRP test_value=0.77
biopolymer_sequence=RRIRPRPPRLPRPRPRPVHRPRP test_value=0.0193
biopolymer_sequence=RRIRHRPPRLPRPRPRPPVSPRP test_value=-0.0862

Q: Request the reported shrunken log2 fold change associated with RRIRFRPPRLPRPRPRPTNYPRP
Ans: -0.587

Q: # get_value(readout='shrunken log2 fold change', item= RRIRLRPPRLPRPRPRPTKCPRP )
Ans: -0.0436

Q: For RRIRKRPPRLPRPRPRPLFEPRP , what is its reported shrunken log2 fold change?
Ans: 0.513

Q: # input sequence: RRIRIRPPRLPRPRPRPMIVPRP ; wanted: its shrunken log2 fold change
Ans: -0.0322

Q: Quick check: shrunken log2 fold change of RRIRTRPPRLPRPRPRPGGIPRP ?
Ans: 0.0232

Q: Request the reported shrunken log2 fold change associated with RRIRYRPPRLPRPRPRPEICPRP
Ans: 0.0682

Q: What shrunken log2 fold change value was documented for this sequence, RRIRKRPPRLPRPRPRPVEPPRP ?
Ans: 0.505

Q: Entry under review: RRIRRRPPRLPRPRPRPWGLPRP . Reported shrunken log2 fold change?
Ans: -0.222

Q: Which shrunken log2 fold change is listed for RRIRIRPPRLPRPRPRPSYRPRP ?
Ans: -0.0544

Q: May I ask what shrunken log2 fold change has been recorded for RRIRDRPPRLPRPRPRPSPQPRP ?
Ans: 0.204

Q: Bench note: what shrunken log2 fold change did RRIRHRPPRLPRPRPRPGISPRP show?
Ans: -0.315

Q: Given the entry RRIRGRPPRLPRPRPRPYFDPRP , report its measured shrunken log2 fold change.
Ans: -0.00956

Q: For the sequence shown here, RRIRQRPPRLPRPRPRPSKNPRP , give the reported shrunken log2 fold change.
Ans: 0.0658

Q: Item under review: RRIRDRPPRLPRPRPRPPRSPRP . Reported shrunken log2 fold change?
Ans: 1.11

Q: # input sequence: RRIRHRPPRLPRPRPRPLLIPRP ; wanted: its shrunken log2 fold change
Ans: -0.516

Q: # get_value(readout='shrunken log2 fold change', item= RRIRLRPPRLPRPRPRPCHAPRP )
Ans: -0.235
